Recorded values, source patent US9309242B2.

# assayedTarget: Ba/F3-FGFR3-transfected cells (Homo sapiens)
# Construct: BAF3-FGFR3 (MIN IL3) pIC50; other: minus IL3
# Sequence (P22607 whole entry, change not shown): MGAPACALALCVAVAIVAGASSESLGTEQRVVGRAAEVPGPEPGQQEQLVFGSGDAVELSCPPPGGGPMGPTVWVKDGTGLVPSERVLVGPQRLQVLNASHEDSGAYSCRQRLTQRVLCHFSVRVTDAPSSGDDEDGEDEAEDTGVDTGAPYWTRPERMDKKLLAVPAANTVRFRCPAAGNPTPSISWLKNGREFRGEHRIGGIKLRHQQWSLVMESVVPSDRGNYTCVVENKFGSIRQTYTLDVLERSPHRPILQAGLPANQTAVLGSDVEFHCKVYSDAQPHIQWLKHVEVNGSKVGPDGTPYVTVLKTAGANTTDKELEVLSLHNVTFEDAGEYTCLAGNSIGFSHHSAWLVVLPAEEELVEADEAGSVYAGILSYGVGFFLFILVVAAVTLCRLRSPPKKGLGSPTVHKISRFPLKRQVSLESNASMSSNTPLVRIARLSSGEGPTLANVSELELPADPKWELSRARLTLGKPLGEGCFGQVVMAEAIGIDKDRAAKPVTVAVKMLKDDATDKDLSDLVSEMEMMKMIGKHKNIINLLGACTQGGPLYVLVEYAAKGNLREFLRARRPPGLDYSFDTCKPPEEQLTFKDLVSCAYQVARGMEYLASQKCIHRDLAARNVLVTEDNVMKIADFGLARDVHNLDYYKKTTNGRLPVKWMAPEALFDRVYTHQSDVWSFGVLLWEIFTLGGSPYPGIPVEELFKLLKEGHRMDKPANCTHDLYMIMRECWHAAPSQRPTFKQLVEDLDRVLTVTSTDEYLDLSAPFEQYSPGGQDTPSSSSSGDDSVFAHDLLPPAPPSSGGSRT
# protocolText: Ba/F3-FGFR3 (minus IL3) cellular proliferation assay, Alamar Blue
# Assay type: cell-based
Lab note: anything with BAF3-FGFR3 (MIN IL3) pIC50 at or over 7 counts as Satisfied; the rest go in Not satisfied.

// known answers, use as guide
INSERT INTO measurements (compound, qualitativelabel) VALUES
  ('CCN(c1ccc2ncc(-c3cnn(C)c3)nc2n1)c1c(F)c(OC)cc(OC)c1F', 'Satisfied'),
  ('COc1cc(/N=c2\ccc3ncc(-c4cnn(C)c4)nc3n2CC2CC(O)C(=O)N2)cc(OC)c1 (centres unmarked)', 'Not satisfied');

Check if BAF3-FGFR3 (MIN IL3) pIC50 >= 7 (inclusive). Item: COc1cc(OC)c(F)c(N(CC2CCC(=O)N2CCO)c2ccc3ncc(-c4cnn(C)c4)nc3n2)c1 (centres unmarked) [Compound 194]
Not satisfied

One more compound: COc1cc(OC)c(F)c(N(Cc2cnn(C)c2)c2ccc3ncc(-c4cnn(C)c4)nc3n2)c1
Satisfied

One more compound: COc1cc(OC)c(F)c(N(CC(=O)NCCO)c2ccc3ncc(-c4cnn(C)c4)nc3n2)c1
Not satisfied

###

# assayedTarget: UniProtKB P35968
# Sequence (P35968 20-1356): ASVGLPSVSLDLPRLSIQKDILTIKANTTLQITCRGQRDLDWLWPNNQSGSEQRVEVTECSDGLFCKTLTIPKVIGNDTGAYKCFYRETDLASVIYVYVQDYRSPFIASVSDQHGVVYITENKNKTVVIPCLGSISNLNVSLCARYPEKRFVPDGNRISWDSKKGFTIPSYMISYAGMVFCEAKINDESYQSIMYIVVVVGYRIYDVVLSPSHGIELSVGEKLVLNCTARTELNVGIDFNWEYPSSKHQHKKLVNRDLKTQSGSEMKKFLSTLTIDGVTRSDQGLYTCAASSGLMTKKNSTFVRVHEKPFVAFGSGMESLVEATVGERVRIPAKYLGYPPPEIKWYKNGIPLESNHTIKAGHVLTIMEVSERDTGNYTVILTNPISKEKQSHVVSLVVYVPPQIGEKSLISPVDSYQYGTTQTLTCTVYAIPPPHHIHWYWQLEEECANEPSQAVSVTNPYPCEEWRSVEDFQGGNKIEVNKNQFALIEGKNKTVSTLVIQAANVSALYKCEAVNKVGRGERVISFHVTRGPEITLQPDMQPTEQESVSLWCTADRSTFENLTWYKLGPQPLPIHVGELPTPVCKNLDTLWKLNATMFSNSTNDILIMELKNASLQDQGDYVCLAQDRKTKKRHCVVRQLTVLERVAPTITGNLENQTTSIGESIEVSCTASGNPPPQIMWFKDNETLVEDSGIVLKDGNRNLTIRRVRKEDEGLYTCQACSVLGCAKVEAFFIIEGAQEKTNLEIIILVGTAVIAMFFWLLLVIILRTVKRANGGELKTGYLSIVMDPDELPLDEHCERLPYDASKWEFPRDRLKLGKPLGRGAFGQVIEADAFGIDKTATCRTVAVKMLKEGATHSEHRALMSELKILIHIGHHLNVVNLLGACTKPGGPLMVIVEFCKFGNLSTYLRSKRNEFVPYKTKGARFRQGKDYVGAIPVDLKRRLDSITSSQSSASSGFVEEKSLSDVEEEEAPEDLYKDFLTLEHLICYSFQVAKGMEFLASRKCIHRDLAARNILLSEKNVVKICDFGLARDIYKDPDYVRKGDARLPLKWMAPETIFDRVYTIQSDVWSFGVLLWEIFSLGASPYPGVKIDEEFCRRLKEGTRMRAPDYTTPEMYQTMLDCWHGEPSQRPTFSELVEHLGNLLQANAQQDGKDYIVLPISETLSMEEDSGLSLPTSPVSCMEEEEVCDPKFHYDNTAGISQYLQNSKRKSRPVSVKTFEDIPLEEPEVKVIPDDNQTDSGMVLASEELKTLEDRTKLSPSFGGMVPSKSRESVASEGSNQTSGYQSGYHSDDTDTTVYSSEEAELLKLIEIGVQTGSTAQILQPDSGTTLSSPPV
# protocolText: KDR (VEGFR2) (enzymatic assay), TR-FRET
# Assay type: biochemical
# measurementContext: average values if tested multiple times, read-out: VEGFR 2 (KDR) pIC50 (converted)
Counter-ions that a name gives are not always drawn.
Quick rule for you: IC50 under 10 nM gets 1.0, anything else gets 0.0.

// known answers, use as guide
INSERT INTO results (molecule, qualitativelabel) VALUES
  ('COc1cc(OC)c(F)c(/N=c2\ccc3ncc(-c4cnn(C)c4)nc3n2CC2CCC(=O)N2)c1F (stereo not drawn) [Compound 193]', 1.0),
  ('COc1cc(OC)c(F)c(N(Cc2ncc[nH]2)c2ccc3ncc(-c4cnn(C)c4)nc3n2)c1 [23-hydrochloric acid salt]', 1.0);

Attention now shifts to the item below.
hey, is IC50 for COc1cc(OC)c(F)c(/N=c2\ccc3ncc(-c4cnn(C)c4)nc3n2CCNC(C)C)c1F lower than 10 nM or not?
0.0

###

# assayedTarget: FGFR3 (h) (Homo sapiens)
# protocolText: FGFR3 (enzymatic assay), TR-FRET
# Type: biochemical
# measurementContext: read-out: FGFR 3 pIC50 (converted)
# Excerpt: Time-Resolved Fluorescence Resonance Energy Transfer (TR-FRET) signal (ex340 nm.
Quick rule for you: IC50 under 2 nM gets criterion met, anything else gets criterion not met.

INSERT INTO assay_data (molecule, qualitativelabel) VALUES
  ('COc1cc(OC)c(F)c(N(CC2COC2)c2ccc3ncc(-c4cnn(C)c4)nc3n2)c1 [Compound 144]', 'criterion met'),
  ('COc1cc(OC)c(F)c(N(CC2CCOC2)c2ccc3ncc(-c4cnn(C)c4)nc3n2)c1 (single isomer, unassigned) [Compound 172]', 'criterion not met'),
  ('COc1cc(OC)cc(N(Cc2nn[nH]n2)c2ccc3ncc(-c4cnn(C)c4)nc3n2)c1 [Compound 197]', 'criterion not met'),
  ('COc1cc(OC)c(F)c(N(CCCN2CCCC2=O)c2ccc3ncc(-c4cnn(C)c4)nc3n2)c1 [Compound 120]', 'criterion met'),
  ('COc1cc(/N=c2\ccc3ncc(-c4cnn(C)c4)nc3n2CCN)c(F)c(OC)c1 [Compound 167]', 'criterion not met'),
  ('COc1cc(OC)c(F)c(N(CC(=O)NC(C)C)c2ccc3ncc(-c4cnn(C)c4)nc3n2)c1 [Compound 249]', 'criterion not met'),
  ('COc1cc(/N=c2\ccc3ncc(-c4cnn(C)c4)nc3n2CC2CCOC2)c(F)c(OC)c1 (single isomer, unassigned) [Compound 169]', 'criterion met');

Attention now shifts to the item below.
hey, is IC50 for COc1cc(OC)c(F)c(N(CC2CCCCO2)c2ccc3ncc(-c4cnn(C)c4)nc3n2)c1 (centres unmarked) [Compound 139] lower than 2 nM or not?
criterion not met

###

# assayedTarget: FGFR1 (h) (Homo sapiens, UniProt P11362)
# Sequence (P11362 22-822): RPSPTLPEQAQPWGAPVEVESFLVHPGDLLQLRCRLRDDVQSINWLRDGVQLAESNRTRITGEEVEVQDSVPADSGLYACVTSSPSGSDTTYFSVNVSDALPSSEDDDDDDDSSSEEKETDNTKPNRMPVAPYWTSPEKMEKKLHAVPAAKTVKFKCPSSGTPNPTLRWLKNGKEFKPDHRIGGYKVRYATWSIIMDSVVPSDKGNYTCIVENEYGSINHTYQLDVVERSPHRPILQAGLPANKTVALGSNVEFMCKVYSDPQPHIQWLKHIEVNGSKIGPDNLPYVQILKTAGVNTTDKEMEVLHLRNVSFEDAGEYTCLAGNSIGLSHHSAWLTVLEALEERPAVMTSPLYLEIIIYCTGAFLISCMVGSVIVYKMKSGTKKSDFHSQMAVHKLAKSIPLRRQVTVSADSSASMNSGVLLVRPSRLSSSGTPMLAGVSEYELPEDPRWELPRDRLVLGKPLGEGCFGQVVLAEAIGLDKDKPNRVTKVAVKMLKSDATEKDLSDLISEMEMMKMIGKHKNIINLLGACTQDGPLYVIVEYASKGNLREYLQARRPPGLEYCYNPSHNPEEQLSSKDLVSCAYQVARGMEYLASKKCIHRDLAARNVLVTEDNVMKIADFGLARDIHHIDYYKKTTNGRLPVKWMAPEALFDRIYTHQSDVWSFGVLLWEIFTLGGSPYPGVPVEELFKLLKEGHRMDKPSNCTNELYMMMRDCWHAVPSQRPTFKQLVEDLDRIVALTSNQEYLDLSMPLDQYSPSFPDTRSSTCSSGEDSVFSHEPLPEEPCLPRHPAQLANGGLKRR
# protocolText: FGFR1 (enzymatic assay), TR-FRET
# Type: biochemical
# measurementContext: read-out: FGFR 1 pIC50 (converted)
Each record here notes measured IC50.
Answer with a number only, understood to be in nM.

Some solved entries appear below for comparison.
INSERT INTO assay_data (molecule, unitinfo, measvalue) VALUES
  ('COc1cc(OC)cc(N(CC2CCCCO2)c2ccc3ncc(-c4cnn(C)c4)nc3n2)c1 (stereo not shown)', 'nM', 3.47),
  ('COc1cc(OC)cc(N(Cc2nn[nH]n2)c2ccc3ncc(-c4cnn(C)c4)nc3n2)c1', 'nM', 22.4);

For CNC(=O)c1cc(F)cc(N(Cc2ncc[nH]2)c2ccc3ncc(-c4cnn(C)c4)nc3n2)c1 , what is its reported IC50?
1.48

###

# assayedTarget: FGFR2 (h) (Homo sapiens, UniProt P21802)
# Sequence (P21802 22-821): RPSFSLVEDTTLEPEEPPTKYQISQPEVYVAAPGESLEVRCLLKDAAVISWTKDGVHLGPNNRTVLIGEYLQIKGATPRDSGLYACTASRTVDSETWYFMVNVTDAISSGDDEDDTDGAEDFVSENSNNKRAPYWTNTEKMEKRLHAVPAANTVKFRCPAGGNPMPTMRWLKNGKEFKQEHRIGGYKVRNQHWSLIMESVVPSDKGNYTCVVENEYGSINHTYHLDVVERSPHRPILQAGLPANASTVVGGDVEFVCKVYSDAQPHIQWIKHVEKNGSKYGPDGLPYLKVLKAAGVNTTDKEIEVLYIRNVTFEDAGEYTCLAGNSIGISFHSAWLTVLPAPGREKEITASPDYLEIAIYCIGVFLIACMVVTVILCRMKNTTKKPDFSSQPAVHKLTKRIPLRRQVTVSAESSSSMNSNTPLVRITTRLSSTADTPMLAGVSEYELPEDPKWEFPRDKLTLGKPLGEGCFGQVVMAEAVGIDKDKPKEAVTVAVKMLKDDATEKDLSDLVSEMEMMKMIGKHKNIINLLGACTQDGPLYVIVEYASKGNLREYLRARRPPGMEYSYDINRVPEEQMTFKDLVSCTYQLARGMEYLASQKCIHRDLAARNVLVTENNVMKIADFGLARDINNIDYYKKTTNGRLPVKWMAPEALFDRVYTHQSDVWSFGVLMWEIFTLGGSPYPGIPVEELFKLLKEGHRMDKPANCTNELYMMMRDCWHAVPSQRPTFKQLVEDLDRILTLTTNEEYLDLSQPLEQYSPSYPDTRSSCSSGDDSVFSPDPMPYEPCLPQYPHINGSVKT
# protocolText: FGFR2 (enzymatic assay), TR-FRET
# Type: biochemical
# measurementContext: enzymatic assay; average values if tested multiple times; read-out: FGFR 2 pIC50 (converted)
assayEndpoint: IC50 (nM)
Answer with a number only, understood to be in nM.

Some solved entries appear below for comparison.
INSERT INTO measurements (compound, assayendpoint, measvalue) VALUES
  ('COc1cc(OC)c(F)c(N(CC(O)COC(C)C)c2ccc3ncc(-c4cnn(C)c4)nc3n2)c1F (stereo not shown) [Compound 63]', 'IC50', 6.17),
  ('COc1cc(/N=c2\ccc3ncc(-c4cnn(C)c4)nc3n2CC2CCC(=O)N2)c(F)c(OC)c1 (stereo not shown) [Compound 53]', 'IC50', 1.62),
  ('COc1cc(OC)c(Cl)c(N(Cc2ncc[nH]2)c2ccc3ncc(-c4cnn(C)c4)nc3n2)c1', 'IC50', 2.04);

For COc1cc(OC)c(Cl)c(N(Cc2ncc[nH]2)c2ccc3ncc(-c4cnn(C)c4)nc3n2)c1Cl , what is its reported IC50?
4.37

One more compound: CNCCn1/c(=N/c2c(Cl)ccc(OC)c2Cl)ccc2ncc(-c3cnn(C)c3)nc21
126

One more compound: COc1cc(/N=c2\ccc3ncc(-c4cnn(C)c4)nc3n2CCNC(C)C)c(F)c(OC)c1
4.47

One more compound: COc1cc(OC)c(F)c(N(CC(O)COC(C)C)c2ccc3ncc(-c4cnn(C)c4)nc3n2)c1 (single isomer, unassigned) [Compound 79]
2.95

###

Each record here notes measured BAF3-FGFR4 pIC50.
# assayedTarget: Ba/F3-FGFR4-transfected cells (Homo sapiens)
# protocolText: Ba/F3-FGFR4 cellular proliferation assay, Alamar Blue
# Format: cell-based
# respond with the number and nothing more

INSERT INTO measurements (compound, measvalue) VALUES
  ('COc1cc(OC)c(F)c(N(CCO)c2ccc3ncc(-c4cnn(CCO)c4)nc3n2)c1 [Compound 233]', 6.91);

For Cn1cc(-c2cnc3ccc(N(Cc4ncc[nH]4)c4c(F)c(F)cc(F)c4F)nc3n2)cn1 [Compound 175] , what is its reported BAF3-FGFR4 pIC50?
6.75

One more compound: COc1cc(OC)c(F)c(N(CCNC2COC2)c2ccc3ncc(-c4cnn(C)c4)nc3n2)c1 [Compound 221]
6.98

One more compound: COc1cc(OC)c(F)c(N(Cc2nc3c([nH]2)CCNC3)c2ccc3ncc(-c4cnn(C)c4)nc3n2)c1 [Compound 104]
5.74

###

# assayedTarget: Ba/F3-FGFR1-transfected cells (Homo sapiens)
# Construct: BAF3-FGFR1 (MIN IL3) pIC50; other: minus IL3
# protocolText: Ba/F3-FGFR1 (minus IL3) cellular proliferation assay, Alamar Blue
# Type: cell-based
assayEndpoint: BAF3-FGFR1 (MIN IL3) pIC50
# respond with the number and nothing more

Some solved entries appear below for comparison.
INSERT INTO assay_data (compound, assayedtarget, measvalue) VALUES
  ('COc1cc(OC)c(F)c(N(Cc2ncc[nH]2)c2ccc3ncc(-c4cccnc4)nc3n2)c1 [Compound 190a]', 'Ba/F3-FGFR1-transfected cells (Homo sapiens)', 7.94),
  ('COc1cc(OC)c(F)c(N(Cc2ncc[nH]2)c2ccc3ncc(-c4cnn(CCCN)c4)nc3n2)c1', 'Ba/F3-FGFR1-transfected cells (Homo sapiens)', 8.47),
  ('CNCCN(c1ccc2ncc(-c3cnn(C)c3)nc2n1)c1c(Cl)c(OC)cc(OC)c1Cl', 'Ba/F3-FGFR1-transfected cells (Homo sapiens)', 7.04);

--- query ---
For COc1cc(O)cc(N(Cc2ncc[nH]2)c2ccc3ncc(-c4cnn(C)c4)nc3n2)c1 , what is its reported BAF3-FGFR1 (MIN IL3) pIC50?
8.31

###

# assayedTarget: Ba/F3-FGFR1-transfected cells (Homo sapiens, UniProt P11362)
# Construct: BAF3-FGFR1 (MIN IL3) pIC50; other: minus IL3
# Sequence (P11362 whole entry, change not shown): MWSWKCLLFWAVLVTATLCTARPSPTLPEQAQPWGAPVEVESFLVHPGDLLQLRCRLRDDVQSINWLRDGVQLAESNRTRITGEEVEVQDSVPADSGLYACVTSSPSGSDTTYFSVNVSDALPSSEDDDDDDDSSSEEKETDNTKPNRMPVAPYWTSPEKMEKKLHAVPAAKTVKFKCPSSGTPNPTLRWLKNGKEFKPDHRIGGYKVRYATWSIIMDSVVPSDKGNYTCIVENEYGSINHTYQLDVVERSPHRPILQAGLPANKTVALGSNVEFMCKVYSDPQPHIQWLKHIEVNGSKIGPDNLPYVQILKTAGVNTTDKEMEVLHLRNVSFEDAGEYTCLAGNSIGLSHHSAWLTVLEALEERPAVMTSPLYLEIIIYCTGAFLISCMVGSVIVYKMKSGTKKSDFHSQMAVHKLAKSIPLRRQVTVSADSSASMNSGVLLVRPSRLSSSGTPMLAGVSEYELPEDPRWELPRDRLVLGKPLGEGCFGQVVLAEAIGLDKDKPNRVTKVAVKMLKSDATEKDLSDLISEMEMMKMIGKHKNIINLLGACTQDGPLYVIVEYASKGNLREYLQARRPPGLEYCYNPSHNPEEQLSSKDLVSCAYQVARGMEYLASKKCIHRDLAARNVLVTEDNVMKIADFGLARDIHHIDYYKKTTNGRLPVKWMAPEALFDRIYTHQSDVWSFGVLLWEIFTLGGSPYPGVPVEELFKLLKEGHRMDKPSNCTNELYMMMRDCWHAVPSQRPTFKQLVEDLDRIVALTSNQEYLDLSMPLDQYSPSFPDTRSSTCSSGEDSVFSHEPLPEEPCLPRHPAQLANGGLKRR
# protocolText: Ba/F3-FGFR1 (minus IL3) cellular proliferation assay, Alamar Blue
# Assay type: cell-based
Each record here notes measured BAF3-FGFR1 (MIN IL3) pIC50.
# respond with the number and nothing more

INSERT INTO measurements (smilescode, assayendpoint, measvalue) VALUES
  ('COc1cc(OC)cc(N(Cc2ncc[nH]2)c2ccc3ncc(-c4cnn(C5CCNCC5)c4)nc3n2)c1', 'BAF3-FGFR1 (MIN IL3) pIC50', 7.73),
  ('COc1cc(OC)c(F)c(N(CCNC2COC2)c2ccc3ncc(-c4cnn(C)c4)nc3n2)c1', 'BAF3-FGFR1 (MIN IL3) pIC50', 7.53),
  ('COc1cc(OC)c(F)c(N(Cc2nccn2C)c2ccc3ncc(-c4cnn(C)c4)nc3n2)c1', 'BAF3-FGFR1 (MIN IL3) pIC50', 7.62),
  ('CNCCn1/c(=N/c2c(F)cccc2F)ccc2ncc(-c3cnn(C)c3)nc21', 'BAF3-FGFR1 (MIN IL3) pIC50', 5.12),
  ('COc1cc(OC)c(F)c(N(Cc2cc[nH]n2)c2ccc3ncc(-c4cnn(C)c4)nc3n2)c1', 'BAF3-FGFR1 (MIN IL3) pIC50', 8.00);

For COc1cc(OC)c(F)c(N(CCNC(C)C)c2ccc3ncc(-c4cnn(C)c4)nc3n2)c1F , what is its reported BAF3-FGFR1 (MIN IL3) pIC50?
8.7

One more compound: COc1cc(OC)c(F)c(N(Cc2nccn2CCO)c2ccc3ncc(-c4cnn(C)c4)nc3n2)c1
7.26
